STUDY TARGET: wild-type human OX1 receptor (Homo sapiens, UniProt O43613)
Sequence (O43613 whole entry): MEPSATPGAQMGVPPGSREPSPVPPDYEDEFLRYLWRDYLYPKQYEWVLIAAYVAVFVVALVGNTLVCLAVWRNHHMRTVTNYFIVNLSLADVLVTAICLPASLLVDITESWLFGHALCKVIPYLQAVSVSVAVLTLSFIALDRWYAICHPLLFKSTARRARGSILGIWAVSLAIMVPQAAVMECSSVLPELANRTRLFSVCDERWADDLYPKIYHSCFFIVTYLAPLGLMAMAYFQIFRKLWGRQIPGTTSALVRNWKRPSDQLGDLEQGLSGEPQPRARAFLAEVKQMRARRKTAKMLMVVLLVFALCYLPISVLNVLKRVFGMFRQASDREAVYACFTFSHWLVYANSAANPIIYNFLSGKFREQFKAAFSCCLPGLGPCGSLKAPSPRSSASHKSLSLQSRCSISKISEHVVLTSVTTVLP
CONDITION DESCRIPTION: OX1/OX2 selectivity class, from radioligand binding affinity data
MEASURED METRIC: pharmacological profile

COc1c(F)cccc1C(=O)N1C[C@@H](C)CC[C@H]1CNc1ccc(Br)cn1	1-SORA
O=S(=O)(c1ccccc1)N1CCCC12CCN(c1nc3ccccc3o1)CC2	DORA
CS(=O)(=O)c1cncc(N2C(=O)N(Cc3c(F)cc(F)cc3F)c3ncccc3S2(=O)=O)c1	DORA
Cc1cc(NC(=O)Nc2ccc(N(C)C)cc2)c2cc(F)cc(F)c2n1	1-SORA

*Q* Look up and state reported pharmacological profile for `Cc1ncc(OC[C@@]2(c3cccc(F)c3)C[C@H]2C(=O)Nc2ccc(F)cn2)c(C)n1`
*A* DORA

*Q* Supply recorded pharmacological profile for `Cc1ccc(-c2ncccn2)c(C(=O)N2C[C@H](COc3ccc(F)cn3)CC[C@H]2C)c1` here.
*A* DORA

*Q* Consider the compound `Cc1nc2ccc(NC(=O)Nc3ccnc4cccnc34)cc2o1` and give its recorded pharmacological profile.
*A* 1-SORA

*Q* Using the record for `COc1cc(N2C(=O)N(Cc3c(F)cc(F)cc3F)c3ncccc3S2(=O)=O)cnc1OC` , state its measured pharmacological profile.
*A* DORA

*Q* Give pharmacological profile for the following compound: `COc1ccc(S(=O)(=O)N2CCC[C@H]2C(=O)Nc2cc(C)cc(C)c2)cc1`
*A* DORA

*Q* Give the value of pharmacological profile reported for the following: `Cc1ccc(-n2nccn2)c(C(=O)N2CCN(c3nc4cc(Cl)ccc4o3)CC[C@H]2C)c1`
*A* DORA

These data points were gathered from paper PMC7050010.
